Exercise: for every item that follows, state its recorded growth inhibition.
# Tested on: HGGX39 (paediatric high-grade glioma line)
# ASSAY OVERVIEW: growth inhibition (% activity, log2 RLU normalised to DMSO / staurosporine); higher = more growth inhibition
# MEASUREMENT SETUP: 33 µM
Your answer should be a plain number; it is taken to be in %.

Prompt line: Which measured growth inhibition value corresponds to Cc1ccc(C)c(OCCCC(C)(C)C(=O)O)c1 ?
Response line: 0.357

Prompt line: Same thing, different molecule: CC(=O)Nc1ccccc1
Response line: -2.41

Prompt line: Same thing, different molecule: CNC(=O)CN(CCN(CCN(CC(=O)[O-])CC(=O)NC)CC(=O)[O-])CC(=O)[O-].[Gd+3]
Response line: -1.74

Prompt line: Same thing, different molecule: CC(=O)N1CCN(c2ccc(OCC3COC(Cn4ccnc4)(c4ccc(Cl)cc4Cl)O3)cc2)CC1 (configuration not stated)
Response line: 13.3

Prompt line: Same thing, different molecule: CN1CCN(CCCN2c3ccccc3Sc3ccc(Cl)cc32)CC1
Response line: 3.02

Prompt line: Same thing, different molecule: O=C(O)c1ccc(-n2nc(-c3ccccc3O)nc2-c2ccccc2O)cc1
Response line: -2

Prompt line: Same thing, different molecule: CCCCN1CCCCC1C(=O)Nc1c(C)cccc1C (configuration not stated)
Response line: 1.03

Prompt line: Same thing, different molecule: NC[C@H](O)c1ccc(O)c(O)c1
Response line: 3.45

Prompt line: Same thing, different molecule: Cc1nc(-c2ccc(OCC(C)C)c(C#N)c2)sc1C(=O)O
Response line: 2.02

Prompt line: Same thing, different molecule: CN1CC(=O)NC1=N
Response line: 6.17

Prompt line: Same thing, different molecule: COc1ccccc1N1CCN(CCCNc2cc(=O)n(C)c(=O)n2C)CC1
Response line: 0.367

Prompt line: Same thing, different molecule: CCCc1nc(C(C)(C)O)c(C(=O)OCc2oc(=O)oc2C)n1Cc1ccc(-c2ccccc2-c2nnn[nH]2)cc1
Response line: -1.5

---

# Tested on: SUDIPGXIII (diffuse intrinsic pontine glioma line)
# ASSAY OVERVIEW: growth inhibition (% activity, log2 RLU normalised to DMSO / staurosporine); higher = more growth inhibition
# MEASUREMENT SETUP: 33 µM
QUANTITY KIND: growth inhibition
Kindly report the value followed by its unit.

Prompt line: Which measured growth inhibition value corresponds to CN1CCN(CCCN2c3ccccc3Sc3ccc(Cl)cc32)CC1 ?
Response line: -0.277%

Prompt line: Same thing, different molecule: O=C(CCCN1CCN(c2ccccn2)CC1)c1ccc(F)cc1
Response line: 2.26%

Prompt line: Same thing, different molecule: CC1(C)[C@@H](OC(=O)CCC(=O)O)CC[C@]2(C)[C@H]3C(=O)C=C4[C@@H]5C[C@@](C)(C(=O)O)CC[C@]5(C)CC[C@@]4(C)[C@]3(C)CC[C@@H]12
Response line: 0.0653%

Prompt line: Same thing, different molecule: O=S(=O)(O)NC1CCCCC1
Response line: -1.99%

---

# Test system: DIPGX37 (H3.3 K27M diffuse intrinsic pontine glioma line)
# ASSAY OVERVIEW: growth inhibition (% activity, log2 RLU normalised to DMSO / staurosporine); higher = more growth inhibition
# MEASUREMENT SETUP: 33 µM
Exercise: for every item that follows, state its recorded growth inhibition.
Your answer should be a plain number; it is taken to be in %.

Prompt line: Which measured growth inhibition value corresponds to CCc1cccc2c3c([nH]c12)C(CC)(CC(=O)O)OCC3 (stereo not drawn) ?
Response line: 0.479

Prompt line: Same thing, different compound: Nc1ccc(S(N)(=O)=O)cc1
Response line: 1.14

Prompt line: Same thing, different compound: Clc1ccc(CSC(Cn2ccnc2)c2ccc(Cl)cc2Cl)cc1 (stereo not drawn)
Response line: -0.102

Prompt line: Same thing, different compound: NCCc1c[nH]cn1
Response line: 0.871

Prompt line: Same thing, different compound: O=C1O[C@H]([C@@H](O)CO)C([O-])=C1O.[Na+]
Response line: -2.29

Prompt line: Same thing, different compound: C[C@H]1C[C@@H]2[C@H]([C@@H](O)C[C@@]3(C)[C@H]2CC[C@]3(O)C(=O)CO)[C@@]2(C)C=CC(=O)C=C12
Response line: 0.838

Prompt line: Same thing, different compound: O=C(O)COCCN1CCN(C(c2ccccc2)c2ccc(Cl)cc2)CC1 (stereo not drawn)
Response line: 2.21

Prompt line: Same thing, different compound: OCCN1C[C@H](O)[C@@H](O)[C@H](O)[C@H]1CO
Response line: 1.74

Prompt line: Same thing, different compound: NS(=O)(=O)c1cc2c(cc1Cl)NCNS2(=O)=O
Response line: -0.293

Prompt line: Same thing, different compound: CC(C)(Oc1ccc(CCNC(=O)c2ccc(Cl)cc2)cc1)C(=O)O
Response line: 2.31

Prompt line: Same thing, different compound: CCCN(CCC)S(=O)(=O)c1ccc(C(=O)O)cc1
Response line: 2.49

Prompt line: Same thing, different compound: CN(C)C(=N)NC(=N)N
Response line: -7.32

Prompt line: Same thing, different compound: Cn1c(CNc2ccc(C(=N)N)cc2)nc2cc(C(=O)N(CCC(=O)O)c3ccccn3)ccc21
Response line: 3.45

Prompt line: Same thing, different compound: CCCCNC(=O)NS(=O)(=O)c1ccc(C)cc1
Response line: 2.64

Prompt line: Same thing, different compound: CC/C(=C(\c1ccccc1)c1ccc(OCCN(C)C)cc1)c1ccccc1
Response line: 1.28

Prompt line: Same thing, different compound: CCN(CC)CCOc1ccc(C(=C(Cl)c2ccccc2)c2ccccc2)cc1
Response line: 11.7

Prompt line: Same thing, different compound: COC(=O)C1=C(C)NC(C)=C(C(=O)OCC(C)C)C1c1ccccc1[N+](=O)[O-] (stereo not drawn)
Response line: 1.14

Prompt line: Same thing, different compound: CC1CC(OC(=O)C(O)c2ccccc2)CC(C)(C)C1 (stereo not drawn)
Response line: 1.83

Prompt line: Same thing, different compound: COCCCOc1cc(C[C@@H](C[C@H](N)[C@@H](O)C[C@H](C(=O)NCC(C)(C)C(N)=O)C(C)C)C(C)C)ccc1OC
Response line: -0.699

Prompt line: Same thing, different compound: CN1CCC(=C2c3ccccc3CCc3sccc32)CC1
Response line: 1.01

Prompt line: Same thing, different compound: CC1=C(C(=O)OC(C)C)C(c2cccc([N+](=O)[O-])c2)C(C(=O)OC2CN(C(c3ccccc3)c3ccccc3)C2)=C(N)N1 (stereo not drawn)
Response line: 5.94

Prompt line: Same thing, different compound: Cc1ncc([N+](=O)[O-])n1CC(O)CCl (stereo not drawn)
Response line: -0.696

Prompt line: Same thing, different compound: CCC(C)(C)c1ccc(CC(C)CN2C[C@@H](C)O[C@@H](C)C2)cc1 (stereo partly drawn)
Response line: 6.3

Prompt line: Same thing, different compound: CCN1CCN(c2cc3c(cc2F)c(=O)c(C(=O)O)cn3C2CC2)CC1
Response line: 1.21

Prompt line: Same thing, different compound: COc1ccc(CC(C)NCC(O)c2ccc(O)c(NC=O)c2)cc1 (stereo not drawn)
Response line: -0.809

Prompt line: Same thing, different compound: CC(C)c1c(C(=O)Nc2ccccc2)c(-c2ccccc2)c(-c2ccc(F)cc2)n1CC[C@@H](O)C[C@@H](O)CC(=O)O
Response line: -10

Prompt line: Same thing, different compound: O=C1C(=O)c2ccccc2C(O)=C1C1CCC(c2ccc(Cl)cc2)CC1 (stereo not drawn)
Response line: -1.09

Prompt line: Same thing, different compound: Cc1cc(NC(=O)C2=C(O)c3ccccc3S(=O)(=O)N2C)no1
Response line: -1.66

---

# Test system: HGGX39
# ASSAY OVERVIEW: growth inhibition (% activity, log2 RLU normalised to DMSO / staurosporine); higher = more growth inhibition
# MEASUREMENT SETUP: 33 µM
QUANTITY KIND: growth inhibition (%)
Your answer should be a plain number; it is taken to be in %.

Prompt line: Which measured growth inhibition value corresponds to C[C@H]1C[C@@H]2[C@H]([C@@H](O)C[C@@]3(C)[C@H]2CC[C@]3(O)C(=O)CO)[C@@]2(C)C=CC(=O)C=C12 ?
Response line: -0.0158

Prompt line: Same thing, different compound: O=C(C[S+]([O-])Cc1ccco1)NC/C=C\COc1cc(CN2CCCCC2)ccn1 (stereo unspecified)
Response line: -0.28

Prompt line: Same thing, different compound: Cc1[nH]c(=O)c(C#N)cc1-c1ccncc1
Response line: 3.34

Prompt line: Same thing, different compound: CC(C)c1nc(N(C)S(C)(=O)=O)nc(-c2ccc(F)cc2)c1C=CC(O)CC(O)CC(=O)O (stereo unspecified)
Response line: 24.4

Prompt line: Same thing, different compound: NC[C@H]1CC[C@H](C(=O)O)CC1
Response line: 2.3

Prompt line: Same thing, different compound: C[C@@H](O)[C@H]1C(=O)N2C(C(=O)O)=C(S[C@@H]3CN[C@H](CNS(N)(=O)=O)C3)[C@H](C)[C@H]12
Response line: -0.0496
